Assignment: determine reported DC50 for the given molecules.
molecular target: Bcl-xL (Homo sapiens, UniProt Q07817); construct: Measured levels of Bcl-xL protein of HCT116 cells treated with the tested compounds; host or cells: HCT116; test: HCT116 Bcl-xL degradation, capillary-based immunoassay (WES); type: cell-based; conditions: HCT116, 24 h, 9-point serial dilution
Sequence (Q07817 whole entry): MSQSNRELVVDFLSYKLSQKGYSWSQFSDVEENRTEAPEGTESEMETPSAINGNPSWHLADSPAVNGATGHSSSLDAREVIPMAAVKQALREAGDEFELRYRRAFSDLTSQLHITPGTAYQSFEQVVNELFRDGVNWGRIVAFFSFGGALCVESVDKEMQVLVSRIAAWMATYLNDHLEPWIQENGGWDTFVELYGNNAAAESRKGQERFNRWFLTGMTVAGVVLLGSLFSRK
One number for each entry, in nM.

Here are 2 molecules. What values of DC50 were reported for them?
1. Cc1ncsc1-c1ccc(CNC(=O)C2C[C@@H](O)CN2C(=O)C(NC(=O)CCCCCC(=O)N2CCN(CC#Cc3ccc(OCCCc4sc(N5CCCc6c5nnc(Nc5nc7ccccc7s5)c6C)nc4C(=O)O)c(F)c3)CC2)C(C)(C)C)cc1 (stereo in doubt)
2. Cc1cc(N(CCCCCn2cc(CCCCCCCCC(=O)N[C@H](C(=O)N3C[C@H](O)C[C@H]3C(=O)NCc3ccc(-c4scnc4C)cc3)C(C)(C)C)nn2)c2ccc(-c3cnn(CC45CC6(C)CC(C)(C4)CC(OCCN(C)C)(C6)C5)c3C)c(C(=O)O)n2)nnc1Nc1nc2ccccc2s1

Found:
1: 0.462; 2: 11.4
